// reported Inhibition per item
# Tested on: HepG2
# measurement notes: GSK_TCMDC: Percent inhibition of human HepG2 cell line. Test compounds present at 10uM.
# Assay type: functional
value kind: Inhibition

1. CC(C)(C)c1ccc(CN2CCC(CNC(=O)c3cc(-c4ccccc4F)cs3)C2)cc1.O=C(O)C(F)(F)F (centres undefined) = 46%
2. CCCc1cn2c3c(cc(C(=O)N[C@@H](Cc4ccccc4)[C@H](O)CNC4CCOCC4)cc13)N(C)S(=O)(=O)CC2.O=CO = 1%
3. CC(C)c1ccc(CN(C)CCCCNC(=O)c2ccc(NC(=O)c3ccc(Cl)cc3)cc2)cc1 = 17%
4. CCOC(=O)NC1=NC(=N)N(OCc2ccc(Cl)c(Cl)c2)C(C)(C)N1 = 66%
5. OC1(c2ccccc2)c2cc(Cl)ccc2OC1c1nc2c(Cl)ccc(Cl)c2o1 (centres undefined) = 7%
6. CC(C)CCN(Cc1cncn1Cc1cccc(C(F)(F)F)c1)C(=O)c1cncc(-c2ccccc2)c1 = 15%
7. O=C(NCCN1CCOCC1)c1csc(C2CCCN(C(=O)c3ccc(O)c(-c4cc(Cl)cc(Cl)c4)c3)C2)n1 (centres undefined) = 12%
8. CN(c1ccccc1)c1ccnc(NC(=N)Nc2ccc(Cl)cc2)n1 = 30%
9. CCCNCc1ccc(-c2ccc(CN(CCOC)C(=O)COc3ccccc3Cl)cc2)nc1.O=C(O)C(F)(F)F = 0%

###

// reported Inhibition per item
# Test system: Plasmodium falciparum
# measurement notes: GSK_TCMDC: Inhibition of Plasmodium falciparum 3D7 in whole red blood cells, using parasite LDH activity as an index of growth. Test compounds present at 2uM
# Assay type: functional
value kind: Inhibition (%)

1. Cn1cc(CN2CCCC(COC(c3ccccc3)c3ccccc3)C2)cn1 (stereo not drawn) = 99
2. CC1CN(c2cnn(Cc3ccc(NC(=O)Nc4ccc(-c5ccccc5)cc4)cc3)c(=O)c2Cl)CC(C)N1.O=C(O)C(F)(F)F (stereo not drawn) = 100
3. O=C(Nc1ccc(OC2CCN(Cc3ccsc3)CC2)c(Cl)c1)c1cccs1.O=C(O)C(F)(F)F = 94
4. O=C(C=Cc1ccc(Cl)c(Cl)c1)NCCCCCN1CCC(CCNC(=O)c2ccc3c(c2)OCO3)CC1 = 99
5. Cc1cc2c(cc1Cl)N(C(=O)Nc1cc(F)cc(-c3cncnc3)c1)CC2 = 96
6. CCOc1cc(/C=N/Nc2nc3ccccc3[nH]2)ccc1OCc1ccc([N+](=O)[O-])cc1 = 100
7. COc1ccc2ccccc2c1CNCCCCCCNCc1c(OC)ccc2ccccc12.Cl = 100
8. CCCC(CNCc1cccc(I)c1)CNc1cc(=O)c2ccccc2[nH]1 (stereo not drawn) = 100

###

// reported Inhibition per item
# Test system: Plasmodium falciparum
# measurement notes: GSK_TCMDC: Inhibition of Plasmodium falciparum 3D7 in whole red blood cells, using parasite LDH activity as an index of growth. Test compounds present at 2uM
# Format: functional
value kind: Inhibition (%)

1. CN(C)C(=O)c1ccc(CN(Cc2ccc(OC(C)(C)C)cc2)Cc2ccc3c(c2)OCCO3)cc1 = 95
2. OC[C@H]1CCCN1CC#Cc1cc2c(Nc3ccc(OCc4cccc(F)c4)c(Cl)c3)ncnc2s1 = 89
3. Cc1nc(-c2ccc(-c3ccc(NC(=O)c4coc5ccc(N6CC(C)N(C)C(C)C6)cc45)cc3)c(C)c2)no1.Cl (stereo not drawn) = 96
4. COc1cc(NC(=O)NC(CCN2CCC3(CCc4ccccc43)CC2)c2ccc(Cl)c(Cl)c2)cc(OC)c1OC (stereo not drawn) = 90
5. CNCCNCc1ccc(-c2ccc(-c3nc4cccc(C)c4[nH]3)s2)cc1.O=C(O)C(F)(F)F = 97
6. COc1c(OC)c(OC)c2ccccc2c1CCNCCCCNCCc1c(OC)c(OC)c(OC)c2ccccc12.CS(=O)(=O)O = 99
7. CC(C)CCN(Cc1cncn1Cc1cccc(C(F)(F)F)c1)C(=O)c1cncc(-c2ccccc2)c1 = 100
8. Cc1ccc(C)c(CC(=O)N2CCC(n3c(C)nc4ccc(F)cc43)CC2)c1 = 100
9. Cc1c(C)c2c(c(C)c1O)CC[C@@](C)(C(=O)N1CCC(CCN3CCC(c4c[nH]c5ccccc45)CC3)CC1)O2 = 98
10. COc1ccc(C(=O)Nc2nonc2-c2ccc(OC)c(OC)c2)cc1Cl = 97
11. COc1cccc2c(N/N=C/c3ccccc3[N+](=O)[O-])ccnc12 = 99
12. O=C(Nc1cccc(F)c1)NC1CCN(c2ccnc3cc(Cl)ccc23)C1.O=C(O)C(F)(F)F (stereo not drawn) = 100
13. COc1ccc(-c2csc3ncnc(Cl)c23)cc1OC = 93
